- experimentalSystem: T1, recombinant biotinylated monomeric Fc fusion of cynomolgus Folate Receptor 1 (cy FolR1 ECD-AcTev-Fcknob-Avi … (cynomolgus, UniProt P0DOX5 223-449 = IgG part, biotin on the C-terminal Avi tag))
- T1 construct: also called cyFolR1-Fc; cyno FolR1
- assayName: SPR ProteOn, Fab analyte on immobilized antigen-Fc
Here, each record is paired with measured Kd data.
Please give a number only; it is taken to be in nM.

# binder, resultUnit, Kd
data = [
    ("18D3 Fab (Fab, V domains shown, bacterial Fab) VH: QVQLVQSGAEVKKPGASVKVSCKASGYTFTSYYMHWVRQAPGQGLEWMGIINPSGGSTSYAQKFQGRVTMTRDTSTSTVYMELSSLRSEDTAVYYCARNYYTGGSSAFDYWGQGTLVTVS VL: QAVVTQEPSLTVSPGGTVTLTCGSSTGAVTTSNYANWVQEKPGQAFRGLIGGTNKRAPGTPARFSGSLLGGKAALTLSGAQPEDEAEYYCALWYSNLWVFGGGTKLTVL", "nM", 40.2),
    ("19E5 Fab (Fab, V domains shown, bacterial Fab) VH: QVQLVQSGAEVKKPGASVKVSCKASGYTFTSYYMHWVRQAPGQGLEWMGIINPSGGSTSYAQKFQGRVTMTRDTSTSTVYMELSSLRSEDTAVYYCARGEWRRYTSFDYWGQGTLVTVSS VL: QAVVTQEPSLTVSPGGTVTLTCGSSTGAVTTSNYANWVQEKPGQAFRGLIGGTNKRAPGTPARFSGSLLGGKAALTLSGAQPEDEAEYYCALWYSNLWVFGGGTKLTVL", "nM", 276),
    ("16A3 Fab (Fab, V domains shown, bacterial Fab) VH: QVQLVQSGAEVKKPGASVKVSCKASGYTFTSYYMHWVRQAPGQGLEWMGIINPSGGSTSYAQKFQGRVTMTRDTSTSTVYMELSSLRSEDTAVYYCARNYYAGVTPFDYWGQGTLVTVSS VL: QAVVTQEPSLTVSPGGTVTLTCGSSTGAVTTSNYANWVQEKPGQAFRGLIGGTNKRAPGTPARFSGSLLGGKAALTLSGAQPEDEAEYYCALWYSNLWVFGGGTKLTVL", "nM", 18),
]

Let us examine a further case.
Form field: reported Kd of 15H7 Fab (Fab, V domains shown, bacterial Fab) VH: QVQLVQSGAEVKKPGASVKVSCKASGYTFTSYYMHWVRQAPGQGLEWMGIINPSGGSTSYAQKFQGRVTMTRDTSTSTVYMELSSLRSEDTAVYYCARNYYLFSTSFDYWGQGTLVTVSS VL: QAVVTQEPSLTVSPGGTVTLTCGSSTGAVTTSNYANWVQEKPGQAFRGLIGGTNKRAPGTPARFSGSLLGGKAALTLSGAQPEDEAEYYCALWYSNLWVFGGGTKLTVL
72.5

Recorded values, source patent US20220220224A1.
